# test-system: T1, recombinant human CFD mutant 1 (R157A, R207A), His-tagged (human, UniProt P00746 26-253)
# T1 construct: positions are linear positions in the mature protein; also called rhCFD-mut1-His; Mut1
# T1 sequence (P00746 26-253 R182A/R232A limits assumed): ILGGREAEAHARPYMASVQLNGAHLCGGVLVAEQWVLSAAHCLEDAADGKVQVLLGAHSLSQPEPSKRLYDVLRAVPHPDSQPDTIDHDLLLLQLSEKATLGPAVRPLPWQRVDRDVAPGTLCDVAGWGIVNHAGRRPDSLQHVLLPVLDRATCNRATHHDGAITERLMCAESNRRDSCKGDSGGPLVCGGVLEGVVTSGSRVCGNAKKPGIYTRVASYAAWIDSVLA
# assay-method-text: SPR MX96
Lab note - cut at 1 nM for Kd: MET if strictly below, NOT MET if not.

* KCD018 (antibody, V domains shown) VH: QVQLQQSAAELARPGASVKMSCKASGYTFTSYTVHWVKQRPGQGLEWIGYINPSSGFTDYNQKFKDKTTLTADISSSTAYIQLSSLTSEDSAVYYCARRGVNWSWFAYWGQGTLVTVSA VL: NIMMTQSPSSLAVSAGEKVTMSCKSSQSVLYSSNQKNYLAWYQQKPGQSPQLLIYWASTRESGVPERFTGSGSGTDFTLTISSVQAEDLAVYYCHQYLSSWTFGGGTKLEIK | NOT MET
* KCD070 (antibody, V domains shown, chimeric) VH: EIQLQQTGPELVKPGASVKISCKASGYSFTDYIILWVKQSHGKSLEWIGNINPYYDYTSYNLKFKGKATLTVDKSSSTAYMQLNSLTSEDSAVYYCARSDGYYGGDYWGQGTSVTVSS VL: DIVMTQSHKFMSTSVGDRVSITCKASQDVGTAVAWYQQKPGQSPKLLIYWASTRHTGVPDRFTGSGSGTDFTLTINNVQSEDLADYFCQQYSSYPWTFGGGTTLEIK | MET
* KCD044 (antibody, V domains shown, chimeric) VH: EVQLQQSGAELVKPGASVRLSCTASGFNIKHTYMHWVSQRPERGLEWIGKIDPANGNTKYDPKFQGKATITADTSSNTVYLQLSSLTSEDTAVYYCLNAMEYWGQGTSVTVSS VL: QSVLTQSPAIMSASPGEKVTMTCSANSSVSDMYWYQQRPGSSPRLLIYDTSNLASGVPVRFSGSGSGTSYSLTISRMEAEDAATYYCQQWSTYPWTFGGGTKLEIK | MET
* KCD004 (antibody, V domains shown, also called OG2063) VH: EVQLQQSGAELVRPGSSVKMSCKTSGKTFTSHGINWVKQRPGQGLEWIGYIYIGNGYNEYNEKFKGKATLTSDTSSSTAYMQLSSLTFEDSAIYFCVRKAYGNYGFDDWGQGTTLTVSS VL: DIQMTQSPTSLSASLGESVSLTCRASQEISGYLNWLQQKPDGSIKRLIYAASTLDSGVPKRFSGSRSGSDYSLTISSLESEDFADYYCLQYANYPFTFGSGTKLEVK | MET
* KCD101 (antibody, V domains shown, chimeric) VH: QVQLQQPGAELVRPGTSVKLSCKASGYTFTSYWMHWVKQRPGQGLEWIGVIDPSDSYTNYNQKFKGKATLTVDTSSSTAYMQLSSLTSEDSAVYYCGRNGYDGSMDYWGQGTSVTVSS VL: DIQMTQTTSSLSASLGDRVTISCRASQDISNYLNWYQQKPDGTVKLLIYYPSRLHSGVPSRFSGSGSGTDYSLTISNLEQEDFATYFCQQGNTLPYTFGGGTKLEIK | NOT MET
* KCD066 (antibody, V domains shown) VH: QVQLQQSAAELARPGASVKMSCKASGYTFTDYTMHWVKQRPGQGLEWIGYINPSGGYTDYNQKFKDKTALTADKSSSTAYMQLSSLTSEDSAVYYCARRRDYWFAYWGQGTLVTVSA VL: DIVMSQSPSSLAVSVGEKVTMSCKSSQSLLYSGNQKNYLAWYQQKPGQSPKLLIYWASTRESGVPDRFTGSGSGTDFTLTISSVKAEDLAVYYCHQYYSYLTFGAGTKLELK | NOT MET
* KCD225 (antibody, V domains shown) VH: QVQLQQSGPELVKPGASVKISCKASGYTFTDYYINWMKQRPGQGLEWIGWIFPGSDSTYYNEKFKGKATLTVDKSSSTAYMLLSSLTSEDSAVYFCARLGYYSHSYYAMDYWGQGTSVTVSS VL: DIQMTQSPASLSVSTGETVTITCRASENIYSNLAWFQQKQGKSPQLLVYAATNLADGVPSRFSGSGSGTQYSLKITSLQSEDFGSYYCQHFWGTPLTFGAGTKLDLK | NOT MET
* KCD030 (antibody, V domains shown) VH: QVQLQQSGAELAKPGASVKMSCKASGYTFTNYWMHWVKQRPGQGLEWIGYINPSIGYTEYNQKFKDKATLTADKSSSTAYMQLSSLTSEDSAVFYCATFIYYAMDYWGQGTSVTVSS VL: DIQMNQSPSSLSASLGDTITITCHASQNINVWLSWYQQKPGNIPKLLIYKASNLHTGVPSRFSGSGSGTGFTLTISSLQPEDIATYYCQQGQSYPYTFGGGTKLEIK | NOT MET
* KCD062 (antibody, V domains shown) VH: EVKLVESGGGLVQPGGSLKLSCAASGFTFSTYIMSWVRQTPEKRLEWVAYITSGGSSTYYPDTVKGRFTISRDNAKSTLYLQMSSLKSEDTAMYYCARHAHFYAMDYWGQGTSVTVSS VL: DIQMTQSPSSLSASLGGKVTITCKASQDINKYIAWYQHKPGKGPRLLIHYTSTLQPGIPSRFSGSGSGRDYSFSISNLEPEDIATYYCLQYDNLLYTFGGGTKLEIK | NOT MET
* KCD137 (antibody, V domains shown) VH: EVQLVESGGDLVKPGGSLKLSCAASGFTFSGYGMSWVRQIPDKRLEWVAISSRDNSFTYYPDSVKGRFTISRDNAKNTLYLQMSSLKSEDTALYFCTRHPYLPTGGYVMDYWGQGTSVTVSS VL: DIVMTQSHKFMSTSVGDRVSITCKASQDVGTAVAWYQQRPGQSPKLLIYWASTRHTGVPDRFTGSGSGTDFTLTVSNVQSEDLADYFCQQYTSYPLTFGAGTKLELK | NOT MET
